Reference for the values: ChEMBL document CHEMBL1201862

# Tested on: SK-MEL-5
# protocol.description: NCI tumour cell line growth inhibition, 48 h
Activity calls are given as the source filed them. Rule as the data show it: active = GI50 up to about 1.1 µM and inactive = higher.
Classes used: 1 for active, -1 for inactive

compound | assigned.label
C=CC1(CC/C(=C\[N+](=O)[O-])c2ccc(OC)c(OC)c2)OCC(C)(C)CO1 | -1
COc1ccc2c3c(n(Cc4ccccc4)c(=O)c2c1)-c1cc(OC)c(OC)cc1C3C (stereo unspecified) | -1
COc1ccc(/C(Cl)=C(\C=O)c2ccc(OC)cc2)cc1 | -1
S=C1SC(=N\c2ccccc2)/C(=N/c2ccccc2)N1c1ccccc1 | -1
CC(C)(C)OC(=O)N(CCCCNC(=O)C(F)(F)F)CCCNC(=O)C(F)(F)F | -1
CCOC(=O)c1ccc(Nc2c3c(nc4ccccc24)CCCC3)cc1 | -1
O=c1c2ccccc2n2c(S)nnc2n1-c1ccccc1 | -1
COc1cccc2c1C(=O)C1(O)CCCCC21 (stereo unspecified) | -1
Cc1ccc2nc(-c3ccc(N)c(I)c3)sc2c1 | -1
O=C1C(N2CCOCC2)=C(Cl)C(=O)c2ncccc21 | -1
CSCC(CO)NC(=O)/C=C/c1c(C)[nH]c(=O)[nH]c1=O (stereo unspecified) | -1
C=CCCc1cc(OC)ccc1CN(C)C(C)(C)CO | -1
CC(C)=C1C2CC3(C)CCC2(C)CCC13.CC1=CCC2C3(C)CCC2(C(C)C)C1C3 (stereo unspecified) | -1
CCCO/S(=N\S(=O)(=O)c1ccccc1)c1ccccc1[N+](=O)[O-] (stereo unspecified) | -1
CC#CCCN(CC#N)Cc1ccccc1 | -1
Clc1nc(Cl)c(Cl)c(-c2ccccc2)n1 | -1
O=C1C2C=CC1C1C(=O)OC(=O)C21 (stereo unspecified) | -1
COc1cc2oc3c(c(=O)c2c(O)c1/C=C/C(C)C)CCC(C)(C)Oc1cc(O)ccc1-3 | -1
CCCN(C(=O)c1ccccc1)C(C#N)c1ccc(C(C#N)N(CCC)C(=O)c2ccccc2)cc1 (stereo unspecified) | -1
CCOC(=O)/C=C1/Oc2ccccc2C1(C)O (stereo unspecified) | -1
CCCCCCCCCCCCCCCCCC(=O)NCCCNCCCNC(=O)CCCCCCCCCCCCCCCCC | -1
O=C1CCN2c3ccccc3[C@H]3Cc4cccc(c4[C@@H]2C3)CCO1 | -1
CN(C)c1ccc(/C=c2\c3ccccc3n3c2cc(-c2ccccc2)[n+]3C)cc1 | 1
Cc1ccc(OP(=O)(Oc2ccc(C)cc2)N2C=Cc3ccccc3C2C#N)cc1 (stereo unspecified) | -1
O=C1CCN(CCC(F)(F)C(F)(F)C(F)(F)C(F)(F)F)C(=S)N1 | -1
COc1ccc(/C=N\O[Si](C)(C)C(C)(C)C)cc1O[Si](C)(C)C(C)(C)C | -1
CN(CCNC(=O)c1cc(-c2ccccc2)nc2ccccc12)CCNC(=O)c1cc(-c2ccccc2)nc2ccccc12 | -1
O=c1oc2ccc3ccccc3c2cc1-c1nc2ccccc2o1 | -1
O=C1C2=C(CCCC2)Nc2cccc3ncn1c23 | -1
Cc1ccc(O)c(-c2csc(NCN3CCN(CNc4nc(-c5cc(C)ccc5O)cs4)CC3)n2)c1 | -1
CCN1CCC(C)OP1(=O)Cc1ccccc1 (stereo unspecified) | -1
CC1(C)OC[C@@H](/C=C\CCO[Si](c2ccccc2)(c2ccccc2)C(C)(C)C)N1C(=O)c1ccccc1 | -1
COc1cc2c(cc1OC)C(=O)/C(=C/c1cc(C)cc(C)c1)C2 | 1
COC(=O)[C@H](Cc1c[nH]c2ccccc12)NP(=O)(OCCC#N)OCC1OC(n2cc(C)c(=O)[nH]c2=O)CC1N=[N+]=[N-] (stereo partly specified) | -1
O=C(c1ccccc1)c1ccc(COc2ccc(C(c3c(O)c4ccccc4oc3=O)c3c(O)c4ccccc4oc3=O)cc2)cc1 | -1
O=C(CCCN1CCC2(CC1)C(=O)NC(=O)N2c1ccccc1)c1ccc(F)cc1 | -1

###

# Test system: PC-3
# protocol.description: NCI tumour cell line growth inhibition, 48 h
Activity calls are given as the source filed them. Rule as the data show it: active = GI50 up to about 1.1 µM and inactive = higher.
Each entry below carries its recorded GI50.

compound | GI50
O=C(C1=CCC2(CC1)OCCO2)N(Cc1ccccc1)c1ccccc1I | 26.3 µM (inactive)
CC(C)C1(C)N=C(C(F)(F)F)c2cc(C(=O)C(F)(F)F)c3ccccc3c2N1 (centres undefined) | 2.52 µM (inactive)
Cc1ccc(-c2nnc(-c3ccc4ccccc4c3)o2)cc1 | 52.2 µM (inactive)
O=C(/C=C1\Nc2ccc([N+](=O)[O-])cc2N\C1=C/C(=O)c1ccc(F)cc1)c1ccc(F)cc1 | > 100 µM (inactive)
c1ccc2cc3c(NC4=NCCO4)cccc3cc2c1 | 45.1 µM (inactive)
O=c1oc2ccc3ccccc3c2cc1-c1nc2ccccc2o1 | 28.1 µM (inactive)
ClCc1nc2ccccc2[nH]1 | > 100 µM (inactive)
O=C(CCCN1CCC2(CC1)C(=O)NC(=O)N2c1ccccc1)c1ccc(F)cc1 | > 100 µM (inactive)
C[Si](C)(C)OC1(C#N)c2ccccc2CCCC12CCCC2 (centres undefined) | 41.1 µM (inactive)

###

# System: IGROV-1
# protocol.description: NCI tumour cell line growth inhibition, 48 h
Activity calls are given as the source filed them. Rule as the data show it: active = GI50 up to about 1.1 µM and inactive = higher.

chem.smiles | GI50
CCN(CC)CCNc1n[n+]([O-])c2ccccc2[n+]1[O-] | 1.81 µM (inactive)
Nc1cc(S(=O)(=O)O)cc2cc(S(=O)(=O)O)c(/N=N/c3ccc(-c4ccc(/N=N/c5c(S(=O)(=O)O)cc6cc(S(=O)(=O)O)cc(N)c6c5O)cc4)cc3)c(O)c12 | > 100 µM (inactive)
O=C(CCc1n[nH]c(=S)o1)Nc1ccccc1C(F)(F)F | > 100 µM (inactive)
Cc1ccc(-c2nnc(-c3ccc4ccccc4c3)o2)cc1 | > 91.2 µM (inactive)
CC1(C)O[C@@H](CBr)C[C@H](C[C@H]2C[C@@H](O)C[C@@H](CCOCc3ccccc3)O2)O1 | 19.8 µM (inactive)
O=C(O)c1cc(O)c2c(c1)Cc1cccc(O)c1C2=O | > 10 µM (inactive)
COc1c2c(c(OC)c3c1c(=O)c1ccccc1n3C)OCO2 | 7.87 µM (inactive)

###

The following molecules each carry a recorded GI50 for HCT-15.

molecule | GI50
O=C(NCCCCCCNC(=O)c1cccc2ccccc12)c1cccc2ccccc12 | > 100 µM
CC(C)(C)OC(=O)NC(CCC(=O)OCc1ccccc1)C(=O)NCCCO (stereo not drawn) | > 100 µM
CC(O[Si](C)(C)C(C)(C)C)[C@H](NC(=O)OCC(Cl)(Cl)Cl)C(=O)O (stereo partly drawn) | > 100 µM

###

# System: BT-549
# protocol.description: NCI tumour cell line growth inhibition, 48 h
Active and inactive are the calls of the source. Cut-off read from the data, not from the text of the source: active = GI50 up to about 1.1 µM and inactive = higher.
Classes used: active, inactive

compound | assigned.label
O=C1CCC2(O)C3Cc4ccc(Oc5nnnn5-c5ccccc5)c5c4C2(CCN3CC2CC2)C1O5 (configuration not stated) | inactive
COc1cccc(NC(=O)CC(=O)n2nc(-c3ccccc3)c(/N=N/c3ccc(Cl)cc3)c2-c2ccccc2)c1 | inactive
CC[C@H](C)[C@H](NC(=O)[C@H](Cc1ccc(O)cc1)NCC(F)(F)F)C(=O)OC(C)(C)C | inactive
CN1CCN(c2n[nH]c(=O)c3c2nnn3C2CCCCC2)CC1 | inactive
O=C1N/C(=N/N=C/c2cccs2)N/C1=C\c1ccco1 | inactive
CCCCCCCC(=O)N/N=C/c1ccc(Sc2nccn2C)c([N+](=O)[O-])c1 | inactive
COC(=O)C12C3C4C1C1C2C3C41C(=O)NC(C)(C)CC(=O)O (configuration not stated) | inactive
O=C(/C=C1\Nc2ccc([N+](=O)[O-])cc2N\C1=C/C(=O)c1ccc(F)cc1)c1ccc(F)cc1 | inactive
CN1C2CCC1CC(C)(O)C2 (configuration not stated) | inactive
Cc1cc(Br)c(O)c(-c2cscn2)c1 | inactive
O=C1C=CC(=NNc2ccccc2)C=CC1=O | inactive
CCN1CCC(C)OP1(=O)Cc1ccccc1 (configuration not stated) | inactive
Clc1nc(Cl)c(Cl)c(-c2ccccc2)n1 | inactive
CC1=NN(C(=O)CC(=O)Nc2cccc(C)c2)C(=O)C1/N=N\c1ccc(S(=O)(=O)c2ccc(/N=N/C3C(=O)N(C(=O)CC(=O)Nc4cccc(C)c4)N=C3C)cc2)cc1 (configuration not stated) | inactive
CNS(=O)(=O)c1ccccc1C(=N)c1ccccc1 | inactive
OC[C@H]1N[C@H](CO)[C@@H](O)[C@H]1O | inactive
O=C1C=CC(=O)c2c1ccc1c3ccccc3n(Cc3ccccc3)c21 | inactive
COCC([C@@H](O)C(O)C(=O)NCC[C@@H](C)c1nc(/C=C/CC2OC3(C[C@H](O)C2C)OC(C(C[C@H](O)C(C)[C@H](O)C(C)/C=C(C)/C(C)=C/C=C/C(C)=C/C#N)OC)[C@@H](OP(=O)(O)O)C3(C)C)co1)N(C)C (some centres not stated) | active
O=[N+]([O-])c1ccccc1CSc1nc(O)c2nc[nH]c2n1 | inactive
CCCCc1nc(C)oc1C(C)C | inactive
COC(=O)[C@H](Cc1c[nH]c2ccccc12)NP(=O)(O)OCC1C=CC(n2cc(C)c(=O)[nH]c2=O)O1 (some centres not stated) | inactive
COC(=O)[C@H](Cc1c[nH]c2ccccc12)NP(=O)(OCCC#N)OCC1OC(n2cc(C)c(=O)[nH]c2=O)CC1N=[N+]=[N-] (some centres not stated) | inactive
